List of pIC50 values.
# target_desc: 5-HT1A (Rattus norvegicus, UniProt P19327)
# Sequence (P19327 1-422): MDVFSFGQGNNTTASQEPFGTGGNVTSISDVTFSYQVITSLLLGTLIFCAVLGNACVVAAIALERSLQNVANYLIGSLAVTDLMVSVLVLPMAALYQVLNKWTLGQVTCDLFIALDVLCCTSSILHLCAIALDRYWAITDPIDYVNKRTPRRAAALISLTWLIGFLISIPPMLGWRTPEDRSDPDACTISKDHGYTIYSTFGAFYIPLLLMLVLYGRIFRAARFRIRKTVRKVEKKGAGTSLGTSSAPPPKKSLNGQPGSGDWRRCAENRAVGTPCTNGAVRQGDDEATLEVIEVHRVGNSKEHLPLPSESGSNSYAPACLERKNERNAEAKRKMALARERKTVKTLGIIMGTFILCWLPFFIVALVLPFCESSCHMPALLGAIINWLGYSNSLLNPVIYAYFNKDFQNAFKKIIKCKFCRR
pIC50 here: minus log base 10 of the concentration, concentration in moles per litre.

Use the examples below as a reference point.
compound	pIC50
COc1ccc2[nH]cc(CCNCCCCN3C(=O)CC4(CCCC4)CC3=O)c2c1	8.40
COc1ccc2[nH]cc(CCNCCCCN3C(=O)C4C5C=CC(C6C=CC65)C4C3=O)c2c1 (stereo not drawn)	8.60

Task item: Recorded pIC50 of O=C1C2C3C=CC(C4C=CC43)C2C(=O)N1CCCCNCCc1c[nH]c2ccccc12 (stereo not drawn) , please.
Reply: 7.59

###

# target_desc: 5-HT1B (Rattus norvegicus)
# Sequence (P28564 whole entry): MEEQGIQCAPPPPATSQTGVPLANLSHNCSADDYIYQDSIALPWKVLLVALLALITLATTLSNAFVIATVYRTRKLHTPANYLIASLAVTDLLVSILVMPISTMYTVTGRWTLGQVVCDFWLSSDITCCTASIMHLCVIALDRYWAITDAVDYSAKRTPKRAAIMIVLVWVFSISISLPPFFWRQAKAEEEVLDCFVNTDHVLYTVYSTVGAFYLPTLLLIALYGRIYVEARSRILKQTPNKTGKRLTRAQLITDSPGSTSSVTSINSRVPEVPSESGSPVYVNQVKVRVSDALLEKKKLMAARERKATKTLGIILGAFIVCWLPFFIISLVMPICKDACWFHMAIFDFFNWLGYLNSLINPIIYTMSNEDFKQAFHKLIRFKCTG
measured_attribute: IC50

compound	IC50
O=C1c2ccccc2S(=O)(=O)N1CCCCN1CCN(c2ncccn2)CC1 [Ipsapirone, reference compound]	> 1000 nM
O=C1C2C3C=CC(C4C=CC43)C2C(=O)N1CCCCNCCc1c[nH]c2ccccc12 (stereo not drawn)	480 nM

Task item: Recorded IC50 of COc1ccc2[nH]cc(CCNCCCCN3C(=O)CC4(CCCC4)CC3=O)c2c1 , please.
Reply: > 1000 nM
